This listing pairs molecules with measured growth inhibition.
procedure_details: NCI Yeast Anticancer Drug Screen. Data for the mec2-1 strain (AID 157)
setup_conditions: S. cerevisiae mec2-1 strain, at 5.0 µM (retest, dose inferred, filed as 0.5), stronger effect = higher value
This is part of a sample that, as a whole, favours compounds with a hit. Of some 79,000 tested, about 15% had one in any assay.
measurement_type: growth inhibition (%)

[Cl][Hg][Cl] :: 100
CCOP(=O)(CC(C)P(=O)(OCC)OCC)OCC.C[CH2][Sn]([Cl])([Cl])[CH2]C (configuration not stated) :: 1
O=C(Nc1cc(Cl)ccc1Cl)C(Cl)(Cl)Cl :: -4
O=C1C2CC(Cl)C(SSC3CC4C(=O)N(SC(Cl)(Cl)C(Cl)Cl)C(=O)C4CC3Cl)CC2C(=O)N1SC(Cl)(Cl)C(Cl)Cl (configuration not stated) :: 100
CC(=O)C(CN(C)C)C(c1ccccc1)c1c(O)c2ccccc2oc1=O (configuration not stated) :: 20
CCOP(=O)(OCC)Oc1ccc([N+](=O)[O-])cc1 :: -10
NC(N)=N/N=C1\C(=O)N(c2ccc(Cl)cc2)C(=O)C1C(=O)Nc1ccc(Cl)cc1 (configuration not stated) :: 14
CC(Cc1ccccc1)N(C)Cc1nc(C2CCC([N+](=O)[O-])O2)no1 (configuration not stated) :: 18
Cc1ccccc1NC(=O)CBr :: 12
C/C(=C\c1ccc2c(c1)OCO2)[N+](=O)[O-] :: 7
CC12CCC(C1)C(C)(C)C2OC(=O)c1ccccc1N (configuration not stated) :: -26
COc1ccc(-c2c(C)c(C(=O)O)nc(-c3ccc4c(O)c(OC)c5c(c4n3)=NC(C)(C)N=5)c2N)c(O)c1OC :: 20
c1cc[c]([Pb]([c]2ccccc2)[c]2ccccc2)cc1.c1cc[c]([Pb]([c]2ccccc2)[c]2ccccc2)cc1 :: 100
COc1cc(OC)c(OC)cc1/C=C/[N+](=O)[O-] :: 24
CC12CCC(C)(c3cc(O)c(O)cc31)c1cc(O)c(O)cc12 :: -1
COc1cc2ccccc2c2cc([N+](=O)[O-])oc12 :: 45
CCNCC(=O)O[C@]1(CC)C(=O)OCc2c1cc1n(c2=O)Cc2cc3ccccc3nc2-1 :: 4
Nc1nc(N)c(-c2ccc(Cl)c(Cl)c2)c(CP(Cl)(Cl)(Cl)Br)n1 :: 39
COC1=C(C)C(=O)c2c(c(COC(N)=O)c3n2CC2C3N2C)C1=O (configuration not stated) :: 2
Nc1ccc(Cl)cc1C(=O)c1ccccc1 :: 54
COc1cc2c(c(OC)c1OC)-c1ccc(O)c(=O)cc1C(NC(C)=O)CC2 (configuration not stated) :: -1
Cc1ccc2c(c1)SP(=S)(c1ccccc1)N2 (configuration not stated) :: 4
Cc1cc(C)c(O)c(C)c1.[Hg] :: 99
CCNC(C)(C)C(SS)c1ccc(Br)cc1 (configuration not stated) :: 2
CC(C)COP(=O)(O)OCC(C)C.[Al] :: -4
CC(=O)[O-].O=C([CH-]C(=O)c1ccccc1)c1ccccc1.O=C([CH-]C(=O)c1ccccc1)c1ccccc1.[Sm+3] :: 42
CCC[CH2][Sn]([CH2]CCC)([S]C#N)[S]C#N :: 96
N#C[SH2+].N#C[SH2+].N#C[SH2+].N#C[SH2+].[Cu+2].c1ccc(C[P+](c2ccccc2)(c2ccccc2)c2ccccc2)cc1 :: 5
c1ccc2c(NCCCCCCCCNc3c4ccccc4nc4ccccc34)c3ccccc3nc2c1 :: 89
CSc1ccc(NC(=O)C2c3[nH]c4ccccc4c3C3CCC(C(C)(C)C)CC3C2C(=O)O)cc1 (configuration not stated) :: -16
CS(=O)(=O)OCCN(CCOS(C)(=O)=O)c1ccc(C=O)cc1 :: 29
CC(C)(C)[CH2][Hg][Cl] :: 100
